Biological target: T1, human GITR (amino acids M1-V241, NCBI Accession #NP_004186.1) expressed on cells (human, UniProt Q9Y5U5 26-241)
T1 sequence: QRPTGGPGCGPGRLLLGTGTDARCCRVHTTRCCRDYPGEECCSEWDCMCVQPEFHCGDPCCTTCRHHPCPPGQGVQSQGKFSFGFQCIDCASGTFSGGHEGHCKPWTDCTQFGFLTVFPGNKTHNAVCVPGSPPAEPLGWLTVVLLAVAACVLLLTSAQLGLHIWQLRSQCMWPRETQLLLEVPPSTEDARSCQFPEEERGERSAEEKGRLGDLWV
Assay: cell-based or functional assay
Property: fold activation, T-cell proliferation, 33 nM, FcgR anchored, donor 1 (fold)
Quick reminder: number only, in fold, skip the unit.

input: Query (binder): H4H14469P (antibody, human IgG4, V domains shown, human IgG4 (H4H)) VH: QVQLVESGGGVVQPGGSLRLSCAVSGFTFSDYGMHWVRQVPGAGLEWVAVIYYEGSNKYYADSVKGRFTISRDNSKNTLYLQMNSLRVEDTSMYFCARGPLLGGNFYSYLMDVWGQGTTVTVSS VL: AIQMTQSPSSLSASVGDRVTITCRASQGIRNGLGWYQQKPGKAPKLLIYTASSLQSGVPSRFSGSGSGTDFTLTISSLQPEDFATYYCLQDYNYPFSFGPGTKVDIK ; field requested: fold activation, T-cell proliferation, 33 nM, FcgR anchored, donor 1
output: 0.7

input: Query (binder): H4H14476P (antibody, human IgG4, V domains shown, human IgG4 (H4H)) VH: QVQLVESGGGVVQPGRSLRLSCAASGFTFSNYGIHWVRQPPGQGLEWVAVIWYAGSNKFYADSVKGRFTISRDNSKNSAYLQMNSLRAEDTAVYYCARAPLGYYYYGMDVWGQGTTVTVSS VL: DIQMTQSPSSLSASVGDRVTITCRASQGIRNDLGWYQQKPGKAPKRLIYDASSLESGVPSRFSGSGSGTEFTLTISSLQPEDFATYYCLQHNSYPWTFGQGTKVEIK ; field requested: fold activation, T-cell proliferation, 33 nM, FcgR anchored, donor 1
output: 0.6

input: Query (binder): H4H14508P (antibody, human IgG4, V domains shown, human IgG4 (H4H)) VH: QVQLVESGGGVVQPGRSLRLSCAASGLTVSSYVMHWVRQAPGKGLEWVAIIWYDGSNKYYGDSVKGRFTISRDNSKKTLYLQMNSLRAEDTAVYYCARGRPLSSSSSDYYGLDVWGQGTTVTVSS VL: AIQMTQSPSSLSASVGDRVTIICRASQGIRNDLGWYQQKPGKAPNLLIYAASSLQSGVPSRFSGSGSGTDFTLTISSLQPEDFATYYCLQDYNYPWTFGQGTKVEIK ; field requested: fold activation, T-cell proliferation, 33 nM, FcgR anchored, donor 1
output: 1
